Origin of values: paper PMC7534336

biological target: human GS3 heparanase (Homo sapiens); assay: fondaparinux assay of heparanase enzymatic activity (WST-1 colorimetric); format: biochemical; details: fondaparinux assay on human GS3 heparanase; mean of triplicates; read-out: IC50 (µM) ± SD, heparanase inhibitory activity
Sequence (Q9Y251 other isoform, or with tags, fused parts or gaps): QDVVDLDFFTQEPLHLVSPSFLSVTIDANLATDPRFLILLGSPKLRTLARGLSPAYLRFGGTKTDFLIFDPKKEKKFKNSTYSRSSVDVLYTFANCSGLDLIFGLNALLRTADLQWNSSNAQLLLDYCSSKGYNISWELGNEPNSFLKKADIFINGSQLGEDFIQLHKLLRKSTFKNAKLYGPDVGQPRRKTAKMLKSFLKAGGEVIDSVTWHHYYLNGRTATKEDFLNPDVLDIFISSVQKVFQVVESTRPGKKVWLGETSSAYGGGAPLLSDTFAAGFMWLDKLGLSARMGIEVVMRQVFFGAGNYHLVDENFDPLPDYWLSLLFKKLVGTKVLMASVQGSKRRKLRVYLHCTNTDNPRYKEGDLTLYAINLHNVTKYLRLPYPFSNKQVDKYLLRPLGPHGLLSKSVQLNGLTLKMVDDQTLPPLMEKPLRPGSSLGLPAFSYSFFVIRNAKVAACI
// IC50 lookup, one value per entry

>  <Molecule>
O=C(Nc1ccccc1C(=O)O)c1ccc2c(c1)C(=O)N(c1ccc(S(=O)(=O)c3ccc(N4C(=O)c5ccc(C(=O)Nc6ccccc6C(=O)O)cc5C4=O)cc3)cc1)C2=O [Compound 24]

>  <IC50>
1.1 µM

$$$$
>  <Molecule>
O=C(O)c1ccc2c(c1)C(=O)N(c1cccc(Oc3cccc(Oc4cccc(N5C(=O)c6ccc(C(=O)O)cc6C5=O)c4)c3)c1)C2=O [Compound 59]

>  <IC50>
2.08 µM

$$$$
>  <Molecule>
O=C(O)c1ccc(Oc2cccc(N3C(=O)c4ccc(Oc5ccc6c(c5)C(=O)N(c5cccc(Oc7ccc(C(=O)O)c(C(=O)O)c7)c5)C6=O)cc4C3=O)c2)cc1C(=O)O [Compound 36]

>  <IC50>
0.63 µM

$$$$
>  <Molecule>
O=C(O)c1cc(NC(=O)c2ccc(Oc3ccc(C(=O)Nc4cc(C(=O)O)cc(C(=O)O)c4)cc3)cc2)cc(C(=O)O)c1 [Compound 50]

>  <IC50>
2.01 µM

$$$$
>  <Molecule>
O=C(Nc1ccc2c(O)c(N=Nc3ccc(N=Nc4ccc(S(=O)(=O)O)cc4)cc3S(=O)(=O)O)c(S(=O)(=O)O)cc2c1)Nc1ccc2c(O)c(N=Nc3ccc(N=Nc4ccc(S(=O)(=O)O)cc4)cc3S(=O)(=O)O)c(S(=O)(=O)O)cc2c1 [Compound 15]

>  <IC50>
0.93 µM

$$$$

###

Biological target: human GS3 heparanase (Homo sapiens)
Assay: fondaparinux assay of heparanase enzymatic activity (WST-1 colorimetric)
Type: biochemical
Conditions: Table S1; fondaparinux assay on GS3 heparanase; read-out: IC50 (M) ± SD
Description: To determine the activity of the heparanase inhibitors, a homogeneous assay based on the cleavage of the synthetic heparin oligosaccharide fondaparinux (Arixtra; Aspen) was used. […] The IC50 value for each compound was calculated by GraphPad software. Finally, the measurements were corrected by subtracting both the reagent background and the inner absorbance value of test compound. […]

>  <Compound>
O=C(Nc1cccc(-c2nc3ccccc3s2)c1)c1ccc(Oc2ccc(C(=O)Nc3cccc(-c4nc5ccccc5s4)c3)cc2)cc1 [Compound 38]

>  <IC50>
5.75e-06 M

$$$$
>  <Compound>
O=C(Nc1cccc(C(=O)c2ccccc2)c1)c1ccc(Oc2ccc(C(=O)Nc3cccc(C(=O)c4ccccc4)c3)cc2)cc1 [Compound 40]

>  <IC50>
> 5e-06 M

$$$$
>  <Compound>
O=C(Nc1ccc(O)cc1C(=O)O)c1ccc(S(=O)(=O)c2ccc(C(=O)Nc3ccc(O)cc3C(=O)O)cc2)cc1 [Compound 53]

>  <IC50>
5.29e-06 M

$$$$
>  <Compound>
O=C(Nc1cccc(Oc2ccc(S(=O)(=O)c3ccc(Oc4cccc(NC(=O)c5ccc(F)cc5)c4)cc3)cc2)c1)c1ccc(F)cc1 [Compound 46]

>  <IC50>
> 5e-06 M

$$$$
>  <Compound>
O=C(O)COc1ccc(N2C(=O)c3ccc(Oc4ccc5c(c4)C(=O)N(c4ccc(OCC(=O)O)cc4)C5=O)cc3C2=O)cc1 [Compound 37]

>  <IC50>
> 5e-06 M

$$$$
